Measured values drawn from ChEMBL document CHEMBL5523667 for this set.

- Tested on: Plasmodium falciparum
- Procedure Summary: Antimalarial activity against trophozoite stage chloroquine-sensitive Plasmodium falciparum 3D7 assessed as growth inhibition incubated with compound for 6 hrs and measured 72 hrs post invasion by SYBR Green dye based analysis
- Format: functional, organism-based
Measured Property: pIC50
Quick note: pIC50 values are minus log10 of concentrations in mol/L.

Find the recorded pIC50 belonging to O=C(Cn1cc(CN2CCN(c3ccnc4cc(Cl)ccc34)CC2)nn1)Nc1cccc([N+](=O)[O-])c1 and report it.
5.71

---

- Tested On: Falcipain 2 (Plasmodium falciparum)
- Sequence (Q9N6S8 whole entry): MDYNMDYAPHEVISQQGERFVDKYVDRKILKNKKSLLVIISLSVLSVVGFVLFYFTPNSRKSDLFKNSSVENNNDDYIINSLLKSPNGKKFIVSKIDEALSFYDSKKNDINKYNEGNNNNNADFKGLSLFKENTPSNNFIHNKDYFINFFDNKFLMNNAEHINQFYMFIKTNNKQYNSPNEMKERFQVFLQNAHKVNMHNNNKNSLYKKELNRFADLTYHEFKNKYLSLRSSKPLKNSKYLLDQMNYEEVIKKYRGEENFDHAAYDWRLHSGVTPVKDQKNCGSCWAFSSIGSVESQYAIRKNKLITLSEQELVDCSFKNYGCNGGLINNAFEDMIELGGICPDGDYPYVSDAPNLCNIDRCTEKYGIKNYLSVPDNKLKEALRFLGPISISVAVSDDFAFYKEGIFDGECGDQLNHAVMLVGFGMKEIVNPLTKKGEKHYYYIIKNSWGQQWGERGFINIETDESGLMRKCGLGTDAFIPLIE
- Procedure Summary: Binding affinity to N-terminal 6His-tagged recombinant Plasmodium falciparum FP2 expressed in Escherichia coli M15 assessed as dissociation constant by surface plasmon resonance analysis
Measured Property: pKd
Quick note: pKd values are minus log10 of concentrations in mol/L.

Find the recorded pKd belonging to O=C(Cn1cc(CN2CCN(c3ccnc4cc(Cl)ccc34)CC2)nn1)Nc1cccc([N+](=O)[O-])c1 and report it.
4.85

---

- Tested On: UniProt:Q8IIL0
- Sequence (Q8IIL0 243-492 limits assumed): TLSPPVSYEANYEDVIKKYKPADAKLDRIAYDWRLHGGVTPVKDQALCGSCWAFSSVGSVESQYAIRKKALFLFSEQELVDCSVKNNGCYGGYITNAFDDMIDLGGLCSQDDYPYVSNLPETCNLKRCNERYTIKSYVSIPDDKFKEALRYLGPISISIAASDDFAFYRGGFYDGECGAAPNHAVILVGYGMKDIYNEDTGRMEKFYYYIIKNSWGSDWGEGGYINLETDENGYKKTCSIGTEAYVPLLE
- Procedure Summary: Binding affinity to N-terminal 6His-tagged recombinant Plasmodium falciparum FP3 expressed in Escherichia coli M15 assessed as dissociation constant by surface plasmon resonance analysis
Measured Property: pKd
Quick note: pKd values are minus log10 of concentrations in mol/L.

Find the recorded pKd belonging to O=C(Cn1cc(CN2CCN(c3ccnc4cc(Cl)ccc34)CC2)nn1)Nc1cccc([N+](=O)[O-])c1 and report it.
4.13

---

Item-by-item account of selectivity ratio
- Procedure Summary: Selectivity index, ratio of IC50 for cytotoxicity against CHO cells to IC50 for antimalarial activity against chloroquine-sensitive Plasmodium falciparum NF54
- Format: toxicity, cell-based
- Run Parameters: hamster, CHO cells versus Plasmodium falciparum NF54; read-out: Ratio IC50
// no unit string in output, number only

These recorded examples may help you get a feel for the data.
chemical_structure=O=C(Cn1cc(CN2CCN(c3ccnc4cc(Cl)ccc34)CC2)nn1)Nc1ccccc1Cl measured_property="selectivity ratio" value_observed=70.3
chemical_structure=O=C(Cn1cc(CN2CCN(c3ccnc4cc(Cl)ccc34)CC2)nn1)Nc1ccc(F)cc1 measured_property="selectivity ratio" value_observed=188
chemical_structure=O=C(Cn1cc(CN2CCN(c3ccnc4cc(Cl)ccc34)CC2)nn1)Nc1cccc([N+](=O)[O-])c1 measured_property="selectivity ratio" value_observed=160

Find the recorded selectivity ratio belonging to Cc1ccc(NC(=O)Cn2cc(CN3CCN(c4ccnc5cc(Cl)ccc45)CC3)nn2)cc1 and report it.
18.8

Find the recorded selectivity ratio belonging to O=C(Cn1cc(CN2CCN(c3ccnc4cc(Cl)ccc34)CC2)nn1)Nc1cccc(F)c1 and report it.
86.5
